- test_target: Voltage-gated potassium channel subunit beta-2 (Rattus norvegicus) (UniProt P62483)
- Sequence (P62483 whole entry, looked up): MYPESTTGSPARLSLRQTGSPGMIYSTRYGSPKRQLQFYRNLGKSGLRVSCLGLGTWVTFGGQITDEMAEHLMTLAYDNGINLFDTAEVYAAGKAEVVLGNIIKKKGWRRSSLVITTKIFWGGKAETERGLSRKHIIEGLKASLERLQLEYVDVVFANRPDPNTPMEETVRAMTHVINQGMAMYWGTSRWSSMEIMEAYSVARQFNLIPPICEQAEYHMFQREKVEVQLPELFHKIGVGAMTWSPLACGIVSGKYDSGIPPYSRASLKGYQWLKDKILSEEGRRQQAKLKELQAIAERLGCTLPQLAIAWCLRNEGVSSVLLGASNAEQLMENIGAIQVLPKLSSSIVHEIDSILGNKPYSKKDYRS
- protocol: enhancers of rat Kvbeta2 NADPH turnover – biochemical, NADPH fluorescence, primary screen (AID 623);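 also: fluorescence intensity change per second fitted from 20 to 320 s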
- settings: Recombinant KvBeta, NADPH fluorescence decrease slope, 10 min; at 10 µM; stronger effect = lower value
Measured NADPH fluorescence slope accompanies every entry in the list below.
Lab note: write the figure by itself, no unit.

Please review the following examples before continuing.
[
  {
    "compound": "Cc1cc2c(c(=O)n1CCN(C)C)C(c1ccncc1)C(C#N)=C(N)O2 (stereo unspecified)",
    "NADPH fluorescence slope": "-1.3e-05"
  },
  {
    "compound": "COc1ccc(OC)c(C2=NOC(C(=O)Nc3cccnc3)C2)c1 (stereo unspecified)",
    "NADPH fluorescence slope": "5.2e-07"
  },
  {
    "compound": "Cc1ccsc1C1C2=C(CCCC2=O)Nc2ncnn21 (stereo unspecified)",
    "NADPH fluorescence slope": -0.000154
  }
]

Provide measured NADPH fluorescence slope value, entry: COCCNC(=O)c1ccc2c(c1)nc(C)n2-c1cccc(F)c1 -3.3e-05

Give the measured NADPH fluorescence slope for Clc1cccc(-c2nn3c(Cn4cnc5ccccc54)nnc3s2)c1 -0.000274

Output NADPH fluorescence slope of CCn1c2ccccc2c2cc(NC(=O)CSc3nnc(C4CC4)n3Cc3ccco3)ccc21 2.1e-05
